Tested on: HCT-116 cell line
ASSAY_OVERVIEW: Inhibition of cell growth, MTT tetrazolium salt assay
Format: cell-based
APPLIED_CONDITIONS: HCT-116 cells, 0.25 μM compound

# COMPOUND, UNITS, HCT-116 % Inhibition at 0.25 μM
measured = [
    ("CCCCN(C)C(=O)c1ccc(Nc2nc(N)c(C(=O)c3c(F)cccc3F)s2)cc1 [Example G218]", "%", 52),
    ("Nc1nc(Nc2ccc(C(=O)NCc3ccccc3Cl)cc2)sc1C(=O)c1c(F)cccc1F [Example G228]", "%", 75),
    ("Cc1ccc(NC(=O)c2ccc(Nc3nc(N)c(C(=O)c4c(F)cccc4F)s3)cc2)cc1 [Example G197]", "%", 61),
    ("Nc1nc(Nc2ccc(C(=O)NCCO)cc2)sc1C(=O)c1c(F)cccc1F [Example G326]", "%", 13),
    ("NC(=O)C(CO)NC(=O)c1ccc(Nc2nc(N)c(C(=O)c3c(F)cccc3F)s2)cc1 (centres unmarked) [Example G198]", "%", 44),
    ("COc1cc(CNC(=O)c2ccc(Nc3nc(N)c(C(=O)c4c(F)cccc4F)s3)cc2)cc(OC)c1 [Example G262]", "%", 59),
    ("CCN(Cc1ccccc1)C(=O)c1ccc(Nc2nc(N)c(C(=O)c3c(F)cccc3F)s2)cc1 [Example G209]", "%", 50),
    ("CCOC(=O)C1CCN(C(=O)c2ccc(Nc3nc(N)c(C(=O)c4c(F)cccc4F)s3)cc2)CC1 [Example G210]", "%", 45),
]

---

System: HCT-116 cell line
ASSAY_OVERVIEW: Inhibition of cell growth, MTT tetrazolium salt assay
Format: cell-based
APPLIED_CONDITIONS: HCT-116 cells, 0.25 μM compound
So basically: is HCT-116 % Inhibition at 0.25 μM under 60%? Then criterion met. Not under? Then criterion not met.

# COMPOUND, LABEL
records = [
    ("CCCCN(Cc1ccccc1)C(=O)c1ccc(Nc2nc(N)c(C(=O)c3c(F)cccc3F)s2)cc1 [Example G306]", "criterion met"),
    ("CCN(C)C(=O)c1ccc(Nc2nc(N)c(C(=O)c3c(F)cccc3F)s2)cc1 [Example G290]", "criterion met"),
    ("Nc1nc(Nc2ccc(C(=O)NCCc3cccc(C(F)(F)F)c3)cc2)sc1C(=O)c1c(F)cccc1F [Example G276]", "criterion met"),
    ("Nc1nc(Nc2ccc(C(=O)NCCSCCO)cc2)sc1C(=O)c1c(F)cccc1F [Example G366]", "criterion met"),
    ("Nc1nc(Nc2ccc(C(=O)N3CCCCC3CCO)cc2)sc1C(=O)c1c(F)cccc1F (centres unmarked) [Example G265]", "criterion met"),
    ("COc1cc(CNC(=O)c2ccc(Nc3nc(N)c(C(=O)c4c(F)cccc4F)s3)cc2)cc(OC)c1OC [Example G234]", "criterion not met"),
    ("COc1ccc(CNC(=O)c2ccc(Nc3nc(N)c(C(=O)c4c(F)cccc4F)s3)cc2)c(OC)c1 [Example G254]", "criterion not met"),
    ("Nc1nc(Nc2ccc(C(=O)NCC(O)CO)cc2)sc1C(=O)c1c(F)cccc1F (centres unmarked) [Example G279]", "criterion met"),
]
